System: CAKI-1 renal
method_summary: NCI-60 one-dose screen, 48 h
condition_set: 10 µM unless noted
Compounds without any hit were thinned out: in the full panel of roughly 83,000, 20% have a hit. Activity calls are given as the source filed them. The calls were made as follows: active = growth percent below 10; inactive = the rest.
Select the correct class. Options are yes (active), no (inactive) and nothing else.

Prompt line: Assay result, entry CN(C)S(=O)(=O)n1cnc([C@@H]2[C@@H]3C(=O)OC[C@@H]3C[C@]23N=CN(Cc2ccccc2)C3=O)c1 — outcome?
Response line: no

---

Test system: A498 renal
method_summary: NCI-60 one-dose screen, 48 h (100 = growth as untreated, 0 = no growth, -100 = all killed)
condition_set: 10 µM unless noted
Compounds without any hit were thinned out: in the full panel of roughly 83,000, 20% have a hit.
growth values for the molecules below.
Dear colleague, please return just the value in %, with no unit written.

Prompt line: Item Clc1ccc(/C=C/c2nc(Nc3ccc(Cl)cc3)c3ccccc3n2)cc1 with A498 renal - growth?
Response line: 94.9

Prompt line: Item Clc1ccc(-c2nnc(-c3ccco3)o2)cc1 with A498 renal - growth?
Response line: 103

Prompt line: Item COc1ccc2cc(-c3ccc(C(=O)NN)c(C)n3)ccc2c1 with A498 renal - growth?
Response line: 90.7

Prompt line: Item CN1CCN(CCCOc2ccc3nc(Nc4cc(Cl)cc(Cl)c4)ccc3c2)CC1 with A498 renal - growth?
Response line: -18.6

Prompt line: Item CN(C)c1cnccn1 with A498 renal - growth?
Response line: 95.7

Prompt line: Item C=C(C=O)C1CCC2(C(=O)O)CCC3(C)C(CCC4C5(C)CCC(O)C(C)(C)C5CCC43C)C12 (stereo unspecified) with A498 renal - growth?
Response line: 55.2

---

System: MCF7 breast
method_summary: NCI-60 one-dose screen, 48 h
condition_set: 10 µM unless noted
This is part of a sample that, as a whole, favours compounds with a hit. Of some 83,000 tested, about 20% had one in any assay. The source made the active and inactive calls. Rule for the calls: active = growth percent below 10; inactive = the rest.
Select the correct class. Options are 1 (active), 0 (inactive) and nothing else.

query_smiles	measured_on	assigned_category
C=C1C(=O)O[C@H]2[C@H]1CC/C(COC(=O)/C=C/C(=O)NCc1ccc(Cn3c(=O)sn(-c4ccccc4)c3=O)cc1)=C\CC[C@@]1(C)O[C@@H]21	MCF7 breast	1

Prompt line: Assay result, entry N#C/C(=C\c1ccc(Br)cc1)n1nnc2ccccc21 — outcome?
Response line: 0

Prompt line: Assay result, entry N#Cc1c(NC(=O)c2cccc(C(F)(F)F)c2)sc2c1CCC(=O)C2 — outcome?
Response line: 1

Prompt line: Assay result, entry COc1cc(NC(=O)c2cccc(-c3cc(=O)c4c(O)c(OC)c(OC)cc4o3)c2)cc(OC)c1OC — outcome?
Response line: 0

Prompt line: Assay result, entry COc1ccc(-c2nc3ncccn3c2/C=C/C(=O)c2cc(OC)c(OC)c(OC)c2)cc1 — outcome?
Response line: 1

Prompt line: Assay result, entry Cc1cc(-c2ccccc2)cc(SC#N)[n+]1[O-] — outcome?
Response line: 0

---

Test system: OVCAR-8 ovarian
method_summary: NCI-60 one-dose screen, 48 h (100 = growth as untreated, 0 = no growth, -100 = all killed)
condition_set: 10 µM unless noted
The panel holds about 83,000 compounds, 20% with a hit somewhere; the sample as a whole holds those more often.
Friendly reminder: growth below 60% is Condition met, at or above is Condition not met.

Prompt line: Is growth strictly under 60% for the entry CN(CCCCCCCCNc1ccnc2ccccc12)Cc1ccc(-c2ccc(-c3ccc(C#N)cc3)s2)cc1 ?
Response line: Condition met

Prompt line: Is growth strictly under 60% for the entry Cc1c(C(=O)O[C@H]2[C@@H]3[C@H](C)CC[C@H]3[C@]3(C)O[C@@]2(C2CCCCC2)C[C@H]3OC(=O)CO)ccc2ccccc12 ?
Response line: Condition met

Prompt line: Is growth strictly under 60% for the entry CC(C)c1ccc(C(=O)OC(=O)c2ccc(C(C)C)cc2)cc1 ?
Response line: Condition not met

Prompt line: Is growth strictly under 60% for the entry NS(=O)(=O)Oc1ccc(-c2sc3cc(O)ccc3c2C(=O)c2ccc(OCCN3CCCCC3)cc2)cc1 ?
Response line: Condition not met

Prompt line: Is growth strictly under 60% for the entry O=C1/C(=C/c2ccc([N+](=O)[O-])cc2)COc2ccc(O)c(O)c21 ?
Response line: Condition met

---

Test system: A549/ATCC NSCLC
method_summary: NCI-60 one-dose screen, 48 h (100 = growth as untreated, 0 = no growth, -100 = all killed)
condition_set: 10 µM unless noted
This is part of a sample that, as a whole, favours compounds with a hit. Of some 83,000 tested, about 20% had one in any assay.
result_type: growth (%)
Dear colleague, please return just the value in %, with no unit written.

molecule	measured_on	u	growth
Cl.[Pt].[c-]1ccccc1-c1ccccn1.c1ccc(P(c2ccccc2)C([PH+](c2ccccc2)c2ccccc2)[PH+](c2ccccc2)c2ccccc2)cc1	A549/ATCC NSCLC	%	14.6
CCn1c(Sc2nnc(NC(C)=O)s2)nc2c1c(=O)n(C)c(=O)n2C	A549/ATCC NSCLC	%	98.7
CSc1nc2sc3cc(Cl)ccc3n2c(=N)c1C#N	A549/ATCC NSCLC	%	62.3
CCO/C=N/C1=C(C#N)C(c2ccc(OC)cc2)c2c(c3ccccc3n(C)c2=O)O1 (configuration not stated)	A549/ATCC NSCLC	%	97.8
Cc1nc(Nc2ccc(NC(=S)Nc3ccccc3)cc2)nc2nc(Nc3ccc(S(=O)(=O)O)cc3)[nH]c(=O)c12	A549/ATCC NSCLC	%	111

Prompt line: Sample COc1cc(NC(=O)c2cc(O)c(CC=C(C)C)c(O)c2)cc2c1O[C@]1(C)CC[C@@H](O)C(C)(C)[C@H]1C2 — what was its growth?
Response line: 40.3

Prompt line: Sample COc1ccc(C2CC(c3ccc4ccccc4c3)=NN2c2nc(O)c(C3=c4cc(Cl)ccc4=NC3=O)s2)cc1 (configuration not stated) — what was its growth?
Response line: -56

Prompt line: Sample Cl.Fc1c[c-]c(-c2ccccn2)c(F)c1.[Pt].c1ccc([PH+](c2ccccc2)c2ccccc2[PH+](c2ccccc2)c2ccccc2)cc1 — what was its growth?
Response line: -68.9

---

Tested on: SNB-75 CNS
method_summary: NCI-60 one-dose screen, 48 h (100 = growth as untreated, 0 = no growth, -100 = all killed)
condition_set: 10 µM unless noted
About 83,000 compounds went through this panel and 20% of them were active in at least one assay; those are over-represented in the sample as a whole.
Range-based classes on measured growth: low: < 10%; intermediate: ≥ 10% and < 70%; high: ≥ 70%

Some entries whose results are on file:
compound	measured_on	assigned_category
Cc1nc(-c2ccccc2)cc2c(O)c(C(=O)N/N=C/c3ccc(N(C)C)cc3)[nH]c(=O)c12	SNB-75 CNS	intermediate
O=C1CC(c2ccc3c(c2)OCO3)Nc2cc3c(cc21)OCO3 (centres undefined)	SNB-75 CNS	intermediate

Prompt line: Which bin should I file CC1(C)C(=O)/C(=C\c2cccnc2)C[C@]2(C)[C@H]3CC=C4[C@@H]5C[C@@](C)(C(=O)O)CC[C@]5(C)CC[C@@]4(C)[C@]3(C)CC[C@@H]12 under?
Response line: high

Prompt line: Which bin should I file N=C(N)c1ccc(-c2ccc(-c3ccc(Cl)cc3Cl)o2)cc1 under?
Response line: intermediate

Prompt line: Which bin should I file CC(C)(C)OC(=O)N1Cc2cc3ccccc3nc2C1CO (centres undefined) under?
Response line: high

Prompt line: Which bin should I file CC(C)n1nc(C#Cc2cccc(O)c2)c2c(N)ncnc21 under?
Response line: low

Prompt line: Which bin should I file Cc1cc(-c2ccc(N(C)C)cc2)c2sc(=O)[nH]c2n1 under?
Response line: intermediate

Prompt line: Which bin should I file CCOC(=O)c1c(C)nc2c(c1N)/C(=C/c1ccc(OC)cc1)C(=O)N2Cc1ccc(F)cc1 under?
Response line: low

---

Test system: 786-0 renal
method_summary: NCI-60 one-dose screen, 48 h
condition_set: 10 µM unless noted
About 83,000 compounds went through this panel and 20% of them were active in at least one assay; those are over-represented in the sample as a whole. Active and inactive are the calls of the source. Rule for the calls: active = growth percent below 10; inactive = the rest.
Select the correct class. Options are y for active, n for inactive and nothing else.

Prompt line: Assay result, entry CCOc1ccc2nc(-c3cccc(OCC(=O)NC(C)C)c3)nc(Nc3ccc(-c4cn[nH]c4)cc3)c2c1 — outcome?
Response line: y

Prompt line: Assay result, entry N[C@@H]1CCC[C@H]1NCCCCN1C(=O)c2cccc3cccc(c23)C1=O — outcome?
Response line: n

Prompt line: Assay result, entry O=c1[nH]c(NCc2nnnn2-c2ccc(Br)cc2)nc2sc3c(c12)CCCC3 — outcome?
Response line: n

Prompt line: Assay result, entry COc1ccc(Oc2nc(Nc3ccc(N4CCOCC4)nc3)ncc2NC(=O)c2cc(OC)cc(OC)c2)cc1 — outcome?
Response line: n
